- Measured Target: Glycogen phosphorylase, muscle form (Oryctolagus cuniculus) (UniProt P00489)
- Sequence (whole entry): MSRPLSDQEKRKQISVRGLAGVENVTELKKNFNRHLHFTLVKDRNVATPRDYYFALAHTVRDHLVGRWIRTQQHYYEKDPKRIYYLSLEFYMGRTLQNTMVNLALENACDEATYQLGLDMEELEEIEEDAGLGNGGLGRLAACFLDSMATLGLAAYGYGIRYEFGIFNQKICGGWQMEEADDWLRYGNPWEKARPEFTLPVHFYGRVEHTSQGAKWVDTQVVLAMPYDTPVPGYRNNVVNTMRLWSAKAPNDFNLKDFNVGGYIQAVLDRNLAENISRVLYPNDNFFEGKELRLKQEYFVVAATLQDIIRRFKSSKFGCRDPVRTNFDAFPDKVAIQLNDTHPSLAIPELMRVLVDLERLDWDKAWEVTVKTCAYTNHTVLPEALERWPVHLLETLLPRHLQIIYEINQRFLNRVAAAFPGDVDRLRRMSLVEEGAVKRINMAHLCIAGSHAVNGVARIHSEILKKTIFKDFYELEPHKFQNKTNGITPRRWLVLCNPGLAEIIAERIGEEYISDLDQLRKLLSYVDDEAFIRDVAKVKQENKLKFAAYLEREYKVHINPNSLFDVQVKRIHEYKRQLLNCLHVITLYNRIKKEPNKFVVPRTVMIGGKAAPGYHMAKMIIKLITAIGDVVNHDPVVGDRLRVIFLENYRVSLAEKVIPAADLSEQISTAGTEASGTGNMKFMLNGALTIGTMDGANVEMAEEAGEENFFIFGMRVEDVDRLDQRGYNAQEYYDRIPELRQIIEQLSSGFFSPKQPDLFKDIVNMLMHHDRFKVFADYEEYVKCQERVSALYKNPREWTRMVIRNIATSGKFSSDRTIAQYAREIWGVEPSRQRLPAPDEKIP
- Test Name: Inhibition of rabbit muscle glycogen phosphorylase at 222 uM
List of inhibition values.

Structure As Smiles: O=C(Nc1cccn(CC(=O)N2CCOCC2)c1=O)c1ccccc1
Reported Result: < 20%

Query string: Name the recorded inhibition of the compound listed here: CC(C)CNC(=O)Cn1cccc(NC(=O)c2ccccc2)c1=O
Result string: < 20%

Query string: Name the recorded inhibition of the compound listed here: COCCCNC(=O)Cn1cccc(NC(=O)c2ccccc2)c1=O
Result string: < 20%

Query string: Name the recorded inhibition of the compound listed here: CC(=O)Nc1cccn(CC(=O)N2CCCC2)c1=O
Result string: < 20%

Query string: Name the recorded inhibition of the compound listed here: CCNC(=O)Cn1cccc(NC(=O)c2ccccc2)c1=O
Result string: < 20%

Query string: Name the recorded inhibition of the compound listed here: CCCNC(=O)Cn1cccc(NC(=O)c2ccccc2)c1=O
Result string: < 20%

Query string: Name the recorded inhibition of the compound listed here: O=C(Cn1cccc(NC(=O)c2ccccc2)c1=O)NCCO
Result string: < 20%

Query string: Name the recorded inhibition of the compound listed here: CCCNC(=O)Cn1cccc(NC(C)=O)c1=O
Result string: < 20%

Query string: Name the recorded inhibition of the compound listed here: O=C(Cn1cccc(NC(=O)c2ccccc2)c1=O)NCc1ccccn1
Result string: < 20%

Query string: Name the recorded inhibition of the compound listed here: COc1ccccc1CNC(=O)Cn1cccc(NCc2ccccc2)c1=O
Result string: 38%

Query string: Name the recorded inhibition of the compound listed here: CC(=O)Nc1cccn(CC(=O)NCc2ccccc2)c1=O
Result string: < 20%

Query string: Name the recorded inhibition of the compound listed here: O=C(Nc1cccn(CC(=O)N2CCCCC2)c1=O)c1ccccc1
Result string: < 20%

====

- Measured Target: Glycogen phosphorylase, muscle form (Oryctolagus cuniculus) (UniProt P00489)
- Test Name: Inhibition of rabbit muscle glycogen phosphorylase at 222 uM
List of inhibition values.

Structure As Smiles: CCOC(=O)Cn1cccc(NCc2ccccc2)c1=O
Measured Target: Glycogen phosphorylase, muscle form (Oryctolagus cuniculus) (UniProt P00489)
inhibition: < 20%

Query string: Name the recorded inhibition of the molecule listed here: CC(=O)Nc1cccn(CC(=O)NCCO)c1=O
Result string: < 20%

Query string: Name the recorded inhibition of the molecule listed here: O=C(Cn1cccc(NCc2ccccc2)c1=O)NCc1ccc(Cl)c(Cl)c1
Result string: 94%

Query string: Name the recorded inhibition of the molecule listed here: O=C(Cn1cccc(NC(=O)c2ccccc2)c1=O)NCc1ccc(Cl)c(Cl)c1
Result string: 45%

Query string: Name the recorded inhibition of the molecule listed here: O=C(Cn1cccc(NC(=O)c2ccccc2)c1=O)N[C@H](CO)Cc1ccccc1
Result string: < 20%

Query string: Name the recorded inhibition of the molecule listed here: CC(C)NC(=O)Cn1cccc(NC(=O)c2ccccc2)c1=O
Result string: < 20%

Query string: Name the recorded inhibition of the molecule listed here: CCCNc1cccn(CC(=O)NCc2ccccc2)c1=O
Result string: 80%

====

List of IC50 values.
- Measured Target: Glycogen phosphorylase, muscle form (Oryctolagus cuniculus)
- Test Name: Inhibition of rabbit muscle glycogen phosphorylase
Give the value in µM but do not write µM after it.

Query string: Name the recorded IC50 of the compound listed here: COc1ccccc1CNC(=O)Cn1cccc(NCc2ccccc2)c1=O
Result string: 308

====

- Measured Target: Glycogen phosphorylase, muscle form (Oryctolagus cuniculus)
- Sequence (whole entry): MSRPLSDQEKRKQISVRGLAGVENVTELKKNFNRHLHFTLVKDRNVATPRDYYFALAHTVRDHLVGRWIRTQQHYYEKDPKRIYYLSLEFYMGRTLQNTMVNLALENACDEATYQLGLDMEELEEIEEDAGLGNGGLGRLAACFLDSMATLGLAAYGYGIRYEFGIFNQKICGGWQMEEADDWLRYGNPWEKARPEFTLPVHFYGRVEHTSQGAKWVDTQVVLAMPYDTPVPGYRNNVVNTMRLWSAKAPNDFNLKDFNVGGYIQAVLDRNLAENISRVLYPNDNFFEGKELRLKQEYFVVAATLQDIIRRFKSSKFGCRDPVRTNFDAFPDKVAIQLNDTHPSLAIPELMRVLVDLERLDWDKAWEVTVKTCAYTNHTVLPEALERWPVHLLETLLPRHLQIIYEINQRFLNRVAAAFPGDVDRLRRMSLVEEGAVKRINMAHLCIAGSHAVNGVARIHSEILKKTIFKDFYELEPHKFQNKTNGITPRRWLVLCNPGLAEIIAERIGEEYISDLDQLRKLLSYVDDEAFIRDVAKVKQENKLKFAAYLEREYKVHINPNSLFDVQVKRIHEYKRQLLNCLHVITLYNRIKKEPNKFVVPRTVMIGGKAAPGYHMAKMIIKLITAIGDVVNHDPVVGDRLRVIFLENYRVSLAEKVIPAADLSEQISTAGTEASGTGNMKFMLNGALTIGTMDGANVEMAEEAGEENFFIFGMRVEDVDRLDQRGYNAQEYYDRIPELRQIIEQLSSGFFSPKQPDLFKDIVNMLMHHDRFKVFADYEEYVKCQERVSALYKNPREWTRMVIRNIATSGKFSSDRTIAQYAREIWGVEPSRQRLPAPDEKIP
- Test Name: Inhibition of rabbit muscle glycogen phosphorylase at 222 uM
Reported Metric: inhibition

Structure As Smiles: O=C(Cn1cccc(NCc2ccccc2)c1=O)NC1CCN(Cc2ccccc2)CC1
inhibition: 45%
//
Structure As Smiles: O=C(Cn1cccc(NC(=O)c2ccccc2)c1=O)NN1CCOCC1
inhibition: < 20%
//
Structure As Smiles: CCCNc1cccn(CC(=O)OCC)c1=O
inhibition: < 20%
//
Structure As Smiles: CCOC(=O)Cn1cccc(NC(=O)c2ccccc2)c1=O
inhibition: < 20%
//
Structure As Smiles: CCCNC(=O)Cn1cccc(NCCC)c1=O
inhibition: < 20%
//
Structure As Smiles: CC(=O)Nc1cccn(CC(=O)NC(C)C)c1=O
inhibition: < 20%
//
Structure As Smiles: O=C(Cn1cccc(NCc2ccccc2)c1=O)NCc1ccccn1
inhibition: < 20%
//
Structure As Smiles: O=C(Cn1cccc(NC(=O)c2ccccc2)c1=O)NCCCN1CCOCC1
inhibition: < 20%

Query string: Output reported inhibition of the molecule CCCNc1cccn(CC(=O)NCc2ccc(Cl)c(Cl)c2)c1=O on Glycogen phosphorylase, muscle form (Oryctolagus cuniculus).
Result string: 40%

====

- Measured Target: Glycogen phosphorylase, muscle form (Oryctolagus cuniculus)
- Test Name: Inhibition of rabbit muscle glycogen phosphorylase at 222 uM
Reported Metric: inhibition

Example results:
Structure As Smiles: O=C(Cn1cccc(NC(=O)c2ccccc2)c1=O)NCCN1CCCCC1
inhibition: < 20%
//
Structure As Smiles: CC(C)(CO)NC(=O)Cn1cccc(NC(=O)c2ccccc2)c1=O
inhibition: < 20%
//
Structure As Smiles: CCCNc1cccn(CC(=O)N2CCCC2)c1=O
inhibition: < 20%
//
Structure As Smiles: O=C(Nc1cccn(CC(=O)N2CCCC2)c1=O)c1ccccc1
inhibition: < 20%
//
Structure As Smiles: CC(C)NC(=O)Cn1cccc(NCc2ccccc2)c1=O
inhibition: < 20%
//
Structure As Smiles: CC(=O)Nc1cccn(CC(=O)NCc2ccc(Cl)c(Cl)c2)c1=O
inhibition: 45%

Query string: Name the recorded inhibition of the compound listed here: O=C(Cn1cccc(NCc2ccccc2)c1=O)N[C@H](CO)Cc1ccccc1
Result string: 94%

Query string: Name the recorded inhibition of the compound listed here: O=C(Cn1cccc(NC(=O)c2ccccc2)c1=O)N[C@H](CO)c1ccccc1
Result string: < 20%

Query string: Name the recorded inhibition of the compound listed here: O=C(Cn1cccc(NCc2ccccc2)c1=O)N1CCCC1
Result string: < 20%

Query string: Name the recorded inhibition of the compound listed here: O=C(Cn1cccc(NC(=O)c2ccccc2)c1=O)NC1CCN(Cc2ccccc2)CC1
Result string: < 20%

Query string: Name the recorded inhibition of the compound listed here: CCCNC(=O)Cn1cccc(NCc2ccccc2)c1=O
Result string: < 20%

Query string: Name the recorded inhibition of the compound listed here: CCCCNC(=O)Cn1cccc(NC(=O)c2ccccc2)c1=O
Result string: < 20%

Query string: Name the recorded inhibition of the compound listed here: O=C(Cn1cccc(NC(=O)c2ccccc2)c1=O)N[C@@H](CO)Cc1ccccc1
Result string: < 20%

Query string: Name the recorded inhibition of the compound listed here: NS(=O)(=O)c1ccc(CCNC(=O)Cn2cccc(NC(=O)c3ccccc3)c2=O)cc1
Result string: < 20%

Query string: Name the recorded inhibition of the compound listed here: NCCNC(=O)Cn1cccc(NC(=O)c2ccccc2)c1=O
Result string: < 20%

Query string: Name the recorded inhibition of the compound listed here: CCOC(=O)Cn1cccc(NC(C)=O)c1=O
Result string: < 20%
